- Protocol details: S. cerevisiae RM11-1a growth modifiers, primary screen, strain RM11-1a, OD600, basal, 24 h (AID 1177);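 note: cultures grown under basal conditions with no added stressor; test concentration not given here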
- Condition parameters: OD600, 24 h, higher = more signal, called active from +8 up or from −8 down
Experimental endpoint: z-score
# answer = number (no unit)

Solved entries (count: 3):
1) COC(=O)C1=C(C)[C@@H](O)[C@@H](C)[C@H](c2c(OC)c(OC)c(C)c(OC)c2OC)O1 0.0467
2) CO[C@H]1COC(=O)[C@H](C)COC(=O)CC=C[C@@H](C)[C@H](OC)COC(=O)CC=C[C@@H]1C -0.192
3) CN(C)CCCNC(=O)[C@@H]1c2ccccc2C(=O)N(Cc2ccccc2)[C@H]1c1ccc(CO)cc1 0.075

Note: attention shifts to another entry.
Fill in: z-score of O=C1[C@H]2[C@H]3[C@H](O)[C@H](O)CC(=NOCc4ccccc4)[C@H]3CC[C@H]2C(=O)N1C[C@@H]1CCCO1 is ___ -0.485

###

- Target of assay: Torsin-1A-interacting protein 2 (Homo sapiens) (UniProt Q8NFQ8)
- Sequence (Q8NFQ8 whole entry, looked up): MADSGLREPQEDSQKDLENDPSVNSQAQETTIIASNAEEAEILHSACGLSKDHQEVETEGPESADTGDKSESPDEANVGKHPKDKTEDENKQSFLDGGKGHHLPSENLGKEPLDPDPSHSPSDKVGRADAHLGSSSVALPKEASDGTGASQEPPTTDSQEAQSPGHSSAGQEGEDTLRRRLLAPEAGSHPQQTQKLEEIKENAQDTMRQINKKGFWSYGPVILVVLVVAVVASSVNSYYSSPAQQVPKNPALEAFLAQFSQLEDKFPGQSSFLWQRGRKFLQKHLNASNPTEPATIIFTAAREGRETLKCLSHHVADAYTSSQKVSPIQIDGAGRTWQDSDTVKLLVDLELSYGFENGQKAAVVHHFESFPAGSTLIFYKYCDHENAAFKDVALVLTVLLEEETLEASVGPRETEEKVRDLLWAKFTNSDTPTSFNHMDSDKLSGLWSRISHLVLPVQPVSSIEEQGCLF
- Protocol details: LULL1 binders on small-molecule microarray, primary screen, cell lysate, human LULL1 lysate, 635/667 nm fluorescence (AID 1092);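 note: probe is lysate of COS7 cells overexpressing human LULL1; score merges per-feature 667 nm fluorescence with signal-to-noise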
- Condition parameters: hLULL1 lysate binding, 635 nm fluorescence, higher = more signal
Experimental endpoint: composite z-score

Known composite z-score results, listed for orientation:
1) CCCC[C@@H]1C[C@H]1[C@@H](NS(=O)(=O)c1cccc2cccnc12)c1ccc(-c2ccccc2)cc1 1.26
2) CCCC=C(CCC)[C@@H](NC(=O)c1ccc(-c2ccccc2)cc1)c1ccc(C(=O)OC)cc1 3.33
3) COc1ccc(O[C@H]2C=C[C@@H](c3ccccc3)O[C@@H]2COC(=O)CCC(C)=NO[C@H](C)c2cn([C@@H]3COC[C@H]3O)nn2)cc1 0.146

Now consider a different compound.
// composite z-score lookup, key: COc1ccc(-c2nc3c(c4c2C[C@H](C)OC4)CN(CCC(C)C)CC3)cc1 1.5

###

Readings of z-score for the listed compounds
- Protocol details: E. coli acrAB mutant growth effects, primary screen, E. coli filamentation inducers, strain DRC39, OD650, 48 h (AID 1179);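 note: screen aims at cell division blockers that make cells filament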
- Condition parameters: E. coli DRC39 delta-acrAB growth, higher = more signal, called active from +8 up or from −8 down
Give only the figure.

Examples from the recorded data:
Compound	Assay value
C=COC[C@H]1CN2[C@@H](CC[C@@H](C)[C@@H]2c2ccc(Br)cc2)C(=O)O1	-0.848
CC(C)(C)N1C(=O)[C@H]2[C@H]3[C@H](O)[C@H](O)CC(=NOCc4ccccc4)[C@@H]3CC[C@H]2C1=O	-0.0278
COCCOC(=O)N1C(=O)[C@@]2(c3cc(C#Cc4ccc(OC)cc4)ccc31)[C@H](c1ccc(O)cc1)N1[C@H](c3ccccc3)[C@H](c3ccccc3)OC(=O)[C@H]1[C@@H]2C(N)=O	0.0669
CCc1cc2c(nc1CC)CCN(CCC(C)=NO[C@@H](C)c1cc(-c3c(C)cc(C)cc3C)no1)C2	0.566
O=C1C2=CC[C@H]3C(=O)N(Cc4ccc5c(c4)OCO5)C(=O)[C@H]3[C@H]2[C@H](O)[C@@H]2O[C@H]12	0.0632

Sample CCOC(=O)[C@H](Cc1ccccc1)NC(=O)CCC1CC(OC(=O)NCc2ccc3c(c2)OCO3)CC2(CCCC(COC(=O)NCC3CCCCC3)O2)O1 (stereo not given in full) — what was its z-score? 0.216

Look at this compound and give its reported z-score. C=C(/C(=C/C[C@H](OC(=O)c1ccncc1)c1ccc(OCCO)cc1)c1cnc2ccccc2c1)C(C)C -1.02

Given CCOC(=O)[C@H](CC(C)C)NC(=O)CCC1CC(OC(=O)NCc2cccc3ccccc23)CC2(CCCC(COC(=O)NCCc3ccccc3OC)O2)O1 (stereo not given in full) , state its recorded z-score. -0.141

// query z-score value for entry COC(=O)C1=C(C)N(Cc2ccccc2)[C@]23O[C@](C(=O)OC)(C(=O)N2[C@@H]1c1ccccc1)[C@H]1CCOC(=O)[C@H]13 -0.164

Form field: reported z-score of CO[C@H]1COC(=O)[C@H](C)NC(=O)[C@@H](C)COC(=O)CC=C[C@@H]1C 1.3

z-score lookup needed for CO[C@@H]1COC(=O)CC=C[C@@H](C)[C@@H]2C=C[C@H](O)[C@@H](COC(=O)[C@H](C)NC(=O)CC=C[C@H]1C)O2 , thanks. -0.637

What measured z-score goes with Cc1ccc(S[C@]2(C(=O)O)CC(=O)N(Cc3ccccc3)[C@@H]2c2ccc(CO)cc2I)cc1 ? -0.246

Find the recorded z-score belonging to O=C(NN=C1C[C@@H](O)[C@@H](O)[C@@H]2[C@@H]3C(=O)N(c4ccc(F)cc4F)C(=O)[C@@H]3CC[C@@H]12)OCc1ccccc1 and report it. 0.873

Report z-score for CCCNC(=O)[C@@H]1c2ccccc2C(=O)N(Cc2ccccc2Cl)[C@H]1c1ccc(CO)cc1 please. 0.829

Need z-score of O=C1CCCC=C1C(O)CCOCc1ccccc1 (stereo not given) , thanks. -1.74
